// values below are reported Zone of inhibition, agarose gel diffusion
- Test system: C. sakazakii DPC 6440
- METHOD SUMMARY: Agarose gel diffusion assay, purified peptide
- Format: cell-based, Cronobacter sakazakii
- CONDITIONS: purified peptide 60 µM, C. sakazakii DPC 6440, mean of triplicate assays
Ends that are not written are not given here.
MEASURED PARAMETER: Zone of inhibition, agarose gel diffusion (mm)

SUBSTANCE: M21K: M21K hinge derivative of nisin A, generated and purified for comparison (ITSISLCTPGCKTGALMGCNKKTATCHCSIHVSK; thioether (positions not given here); not fully specified (residues 2, 5, 33, bridges); UniProt P13068 24-57, looked up, variant M21K)
EXPERIMENTAL SYSTEM: C. sakazakii DPC 6440
QUANTITATIVE RESULT: 10.51
--
SUBSTANCE: S29A: bioengineered nisin A derivative, serine 29 replaced by alanine (ITSISLCTPGCKTGALMGCNMKTATCHCAIHVSK; not fully specified (residues 2, 5, 33, bridges); cysteine pairing not given here; UniProt P13068 24-57, looked up, variant S29A)
EXPERIMENTAL SYSTEM: C. sakazakii DPC 6440
QUANTITATIVE RESULT: 11.65
--
SUBSTANCE: S29G: bioengineered nisin A derivative with a serine to glycine change at position 29 (ITSISLCTPGCKTGALMGCNMKTATCHCGIHVSK; thioether (positions not given here); not fully specified (residues 2, 5, 33, bridges); UniProt P13068 24-57, looked up, variant S29G)
EXPERIMENTAL SYSTEM: C. sakazakii DPC 6440
QUANTITATIVE RESULT: 10.79
--
SUBSTANCE: nisin A (ITSISLCTPGCKTGALMGCNMKTATCHCSIHVSK; thioether (positions not given here); not fully specified (residues 2, 5, 33, bridges); also: lantibiotic, ring and dehydro modifications not given here; UniProt P13068 24-57, looked up) [wild type lantibiotic bacteriocin purified from L. lactis NZ9700; serine at position 29, reference compound]
EXPERIMENTAL SYSTEM: C. sakazakii DPC 6440
QUANTITATIVE RESULT: 9.77
--
SUBSTANCE: S29E: bioengineered nisin A derivative, serine 29 replaced by glutamic acid (ITSISLCTPGCKTGALMGCNMKTATCHCEIHVSK; not fully specified (residues 2, 5, 33, bridges); cysteine pairing not given here; UniProt P13068 24-57, looked up, variant S29E)
EXPERIMENTAL SYSTEM: C. sakazakii DPC 6440
QUANTITATIVE RESULT: 7.98
--
SUBSTANCE: S29D: bioengineered nisin A derivative, serine 29 replaced by aspartic acid (ITSISLCTPGCKTGALMGCNMKTATCHCDIHVSK; thioether (positions not given here); not fully specified (residues 2, 5, 33, bridges); UniProt P13068 24-57, looked up, variant S29D)
EXPERIMENTAL SYSTEM: C. sakazakii DPC 6440
QUANTITATIVE RESULT: 10.10

###

- Tested on: Salmonella enterica serovar Typhimurium UK1
- METHOD SUMMARY: Agarose gel diffusion assay, purified peptide
- Assay type: cell-based
- CONDITIONS: purified peptide 60 µM, Salmonella Typhimurium UK1, relative to nisin A
Ends that are not written are not given here.

SUBSTANCE: S29A: bioengineered nisin A derivative, serine 29 replaced by alanine (ITSISLCTPGCKTGALMGCNMKTATCHCAIHVSK; not fully specified (residues 2, 5, 33, bridges); cysteine pairing not given here; UniProt P13068 24-57, looked up, variant S29A)
EXPERIMENTAL SYSTEM: Salmonella enterica serovar Typhimurium UK1
Zone as % wt / % wt: 114
--
SUBSTANCE: S29D: bioengineered nisin A derivative, serine 29 replaced by aspartic acid (ITSISLCTPGCKTGALMGCNMKTATCHCDIHVSK; thioether (positions not given here); not fully specified (residues 2, 5, 33, bridges); UniProt P13068 24-57, looked up, variant S29D)
EXPERIMENTAL SYSTEM: Salmonella enterica serovar Typhimurium UK1
Zone as % wt / % wt: 83
--
SUBSTANCE: S29G: bioengineered nisin A derivative with a serine to glycine change at position 29 (ITSISLCTPGCKTGALMGCNMKTATCHCGIHVSK; thioether (positions not given here); not fully specified (residues 2, 5, 33, bridges); UniProt P13068 24-57, looked up, variant S29G)
EXPERIMENTAL SYSTEM: Salmonella enterica serovar Typhimurium UK1
Zone as % wt / % wt: 111
--
SUBSTANCE: S29E: bioengineered nisin A derivative, serine 29 replaced by glutamic acid (ITSISLCTPGCKTGALMGCNMKTATCHCEIHVSK; not fully specified (residues 2, 5, 33, bridges); cysteine pairing not given here; UniProt P13068 24-57, looked up, variant S29E)
EXPERIMENTAL SYSTEM: Salmonella enterica serovar Typhimurium UK1
Zone as % wt / % wt: 109
--
SUBSTANCE: M21K: M21K hinge derivative of nisin A, generated and purified for comparison (ITSISLCTPGCKTGALMGCNKKTATCHCSIHVSK; thioether (positions not given here); not fully specified (residues 2, 5, 33, bridges); UniProt P13068 24-57, looked up, variant M21K)
EXPERIMENTAL SYSTEM: Salmonella enterica serovar Typhimurium UK1
Zone as % wt / % wt: 109
